Test Summary: tissue kinetics of the components of the drug product in rodents
Assay type: in vivo
Assay Conditions: tissue (tissue with the maximum mean value; not named), read-out: maximum mean tissue terminal-phase elimination half-life (t1/2) (converted)
Measure: half-life (h)
Output spec: scalar in h, unitless text.

Any idea what its half-life is? The compound is CCCCCCCCCOC(=O)CCCCCCCN(CCO)CCCCCCCC(=O)OC(CCCCCCCC)CCCCCCCC [Compound II]
54.4
